test system: P388 leukemia ip, CD2F1 mice, survival T/C; assay: NCI In Vivo Anticancer Drug Screen. Data for tumor model P388 Leukemia (intraperitoneal) in CD2F1 (CDF1) mice; settings: endpoint: median survival time; dose: 200.0 mg/kg/injection; schedule: Q01DX009 (ip); vehicle: saline; higher = longer survival
Toxic doses and inconclusive results are not listed.
Listed here are compounds together with their documented T/C.
Recorded endpoint: T/C

COc1cc(/C=N/n2cnnc2)cc(OC)c1OC : 108 % of control
C=CC(=O)NCCCCCC(=O)O : 103 % of control
Nc1cc(=O)[nH]c2ncnn12 : 99 % of control
O=c1cc[nH]c(=O)[nH]1 : 100 % of control
Cc1cc(C2(c3cc(C)c(O)c(CN(CC(=O)O)CC(=O)O)c3)OS(=O)(=O)c3ccccc32)cc(CN(CC(=O)O)CC(=O)O)c1O : 104 % of control
CN(C)NC(=O)/C=C\C(=O)O : 91 % of control
CC1=NCc2nn(C)nc2N1 : 97 % of control
Cc1cc(NS(=O)(=O)c2ccc(N=Nc3cc(N=Nc4ccc(S(=O)(=O)Nc5cc(C)nc(C)n5)cc4)c4c(NC(=O)C(Cl)Cl)cccc4c3OC(=O)C(Cl)Cl)cc2)nc(C)n1 (tested in a mixture with another compound) : 99 % of control
CC(=O)N(O)c1ccc(C(N)=O)cc1 : 106 % of control
CC1(C)SC2C(NC(=O)C(N)c3ccc(O)cc3)C(=O)N2C1C(=O)O (stereo unspecified) : 113 % of control
OC(C/C=C/c1ccccc1)(c1ccccc1)c1ccccc1 : 91 % of control
CC(C)CC([N+](C)(C)C)P(=O)([O-])O (stereo unspecified) : 95 % of control
CCC[CH2][Ge](=[O])[CH2]CCC : 88 % of control
[CH3][Ge]([CH3])=[O] : 100 % of control
O=C(N/N=C\c1ccc(O)cc1)C(=O)N/N=C\c1ccc(O)cc1 : 96 % of control
c1csc(C[N+]23CN4CN(CN(C4)C2)C3)c1 : 118 % of control
COc1cc2c(cc1OC)C1C(O)C(OC)C=C3CCN(C2)C31 (stereo unspecified) : 102 % of control
Oc1c(O)c(Br)c(Br)c(Br)c1Br : 111 % of control
C=C(C)C(=O)NC(C)C(=O)O (stereo unspecified) : 100 % of control
C[CH2][Ge]([CH2]C)[CH2]C.C[CH2][Ge]([Cl])[CH2]C.C[CH2][Ge][CH2]C : 103 % of control
CS(=O)(=O)N(C=O)c1ccccc1 : 96 % of control
CC(C)(C)c1cc(C(=O)O)c(Br)c(C(=O)O)c1 : 100 % of control
O=C(O)CCC(=O)OCCNCCOC(=O)CCC(=O)O : 99 % of control
O=[N+]([O-])c1ccc(-n2nnc3ccccc32)nc1 : 99 % of control
CCOCC(=O)O : 91 % of control
O=C(O)c1ccccc1-c1ccccc1[N+](=O)[O-] : 97 % of control

* * *

// reported T/C for each item listed
system: P388 leukemia ip, CD2F1 mice, survival T/C; assay: NCI In Vivo Anticancer Drug Screen. Data for tumor model P388 Leukemia (intraperitoneal) in CD2F1 (CDF1) mice; conditions: endpoint: median survival time; dose: 60.0 mg/kg/injection; schedule: Q01DX005 (ip); vehicle: saline; higher = longer survival
Toxic doses and inconclusive results are not listed.
Recorded endpoint: T/C

CCOC(=O)C(NC(=O)c1ccccc1)(C(=O)OCC)c1ccccn1 : 99 % of control
CCCCCCCC[N+]1([O-])CC[N+](C)([O-])CC1 (configuration not stated) : 100 % of control
CCOCc1cn[nH]n1 : 100 % of control
NC1C(=O)Nc2ccccc21 (configuration not stated) : 95 % of control
O=C(O)C1C2OC(C(Cl)C2Cl)C1C(=O)O (configuration not stated) : 95 % of control
Nc1nnc2nc(CC(=O)c3ccc4ccccc4c3)c(=O)[nH]n12 : 95 % of control
COc1cncn2nc(C)nc12 : 100 % of control
COC(=O)C12CC3CC(CC(NC(=O)C(Cc4ccccc4)NC(=O)CN)(C3)C1)C2 (configuration not stated) : 94 % of control
CC(C)N1CC(=O)N2CSCC2C1=O (configuration not stated) : 105 % of control
O=C1C2C3CCC(O3)C2C(=O)N1CO (configuration not stated) : 112 % of control
CCOC(C)c1nc2c([nH]1)c(=O)n(C)c(=O)n2C (configuration not stated) : 99 % of control
CN(C)C(=S)OCC1OC(OC2(CO)OC(COC(=S)N(C)C)C(O)C2O)C(O)C(O)C1O (configuration not stated) : 100 % of control
